Where these numbers come from: patent US20260217797A1

molecular target: SARS-CoV-2 Variant B.1.17 N501Y S1-His (SARS-CoV-2, UniProt P0DTC2 16-685); test: Octet BLI, IgG, monovalent
QUANTITY: Kd (nM)

[[record]]
binder = "A-23.1 (antibody, V domains shown) VH: EVQLVESGGGLVQPGRSLRLSCAASGFTIDDYAMHWVRQAPGKGLEWVSGISWNGGTIGYADSVKGRFIISRDNAKNSLYLQMNSLRGEDMALYYCGKDRKREDPSLGGMDVWGQGTTVTVSS VL: SYVLTQPPSVSVAPGQTARITCLGNNIGSKSVHWYQQKPGQAPVLVVYDDTDRPSGIPERFSGSNSGNTATLTISRVEAGDEADYYCQVWDSESDHYVFGTGTKVTVL"
quantity = "Kd"
numeric_value = 0.512

[[record]]
binder = "A-20 (antibody, V domains shown) VH: QVQLVESGGGVVQPGRSLRLSCAASGFTFSNFAMHWVRQAPGKGLEWVAVILYDGINKYYADSVKGRFTISRGNSKNTLSLQMNSLRAEDTAVYYCARAQNYYDRSGTLQLDAFDIWGQGTLVTVSS VL: AIQMTQSPSSLSASVGDRVTITCRASQGIRNDLGWYQQKPGKAPKLLIYAASSLQSGVPSRFSGSGSGTDFTLTISSLQPEDFATYYCLQDYNYPLTFGGGTKVEIK"
quantity = "Kd"
numeric_value = 2.57

[[record]]
binder = "A-23.2 (antibody, V domains shown) VH: EVQLVESGGGLVQPGRSLRLSCAASGFTFDDYAMHWVRQAPGKGLEWVSGTSWNSGTIGYADSVKGRFIISRDNAKNSLYLQMNSLRGEDMALYYCVKDRKREDPSLGGMDVWGQGTTVTVSS VL: SYVLTQPPSVSVAPGQTARITCGGNNIGSKSVHWYQQKPGQAPVLVVYDDTDRPSGIPERFSGSNSGNTATLTISRVEAGDEADYYCQVWDVSSDSYVFGTGTKVTVL"
quantity = "Kd"
numeric_value = 0.242

[[record]]
binder = "A-23 (antibody, V domains shown) VH: EVQLVESGGGLVQPGRSLRLSCAASGFTFDDYAMHWVRQAPGKGLEWVSGISWNSGTIGYADSVKGRFIISRDNAKNSLYLQMNSLRGEDMALYYCGKDRKREDPSLGGMDVWGQGTTVTVSS VL: SYVLTQPPSVSVAPGQTARITCGGNNIGSKSVHWYQQKPGQAPVLVVYDDTDRPSGIPERFSGSNSGNTATLTISRVEAGDEADYYCQVWDSSSDHYVFGTGTKVTVL"
quantity = "Kd"
numeric_value = 1.2

[[record]]
binder = "A-20.1 (antibody, V domains shown) VH: QVQLVESGGGVVQPGRSLRLSCAASGFTFSNFAMHWVRQAPGKGLEWVAVILYDGINKYYADSVKGRFTISRGNSKNTLSLQMNSLRAEDTAVYYCARAQNYYDRSGTLQLDAFDIWGQGTLVTVSS VL: AIQMTQSPSSLSASVGDRVTITCVASQGIRNDLGWYQQKPGKAPKLLIYEASSLESGVPSRFSGSGSGTDFTLTISSLQPEDFATYYCLQDYNYPLTFGGGTKVEIK"
quantity = "Kd"
numeric_value = 0.604

[[record]]
binder = "A-23.3 (antibody, V domains shown) VH: EVQLVESGGGLVQPGRSLRLSCAASGFTFDDYAMHWVRQAPGKGLEWVSGTSWNSGTIGYADSVKGRFIISRDNAKNSLYLQMNSLRGEDMALYYCVKDRKREDPSLGGMDVWGQGTTVTVSS VL: SYVLTQPPSVSVAPGQTARITCGGNNIGSKSVHWYQQKPGQAPVLVVYDDTDRPSGIPERFSGSNSGNTATLTISRVEAGDEADYYCQVWDSSSDDYVFGTGTKVTVL"
quantity = "Kd"
numeric_value = 0.286

